List of specific heat capacity values.
- measurement.protocol: specific heat capacity at constant pressure; cn = amount concentration of the nth substance listed, in mol/dm3
- test.settings: 314.65 K; 101 kPa; Liquid; heat flux microcalorimetry; c2 = 0
readout: specific heat capacity (J/K/kg)

1) CO [methanol] + [Cl-].c1ccc([P+](c2ccccc2)(c2ccccc2)c2ccccc2)cc1    2621
2) O [water] + [Cl-].c1ccc([P+](c2ccccc2)(c2ccccc2)c2ccccc2)cc1    4182.4
3) CCO [ethanol] + [Cl-].c1ccc([P+](c2ccccc2)(c2ccccc2)c2ccccc2)cc1    2694.1
4) CC#N [acetonitrile] + [Cl-].c1ccc([P+](c2ccccc2)(c2ccccc2)c2ccccc2)cc1    2286.5

* * *

- measurement.protocol: cn = amount concentration of the nth substance listed, in mol/dm3
- test.settings: 314.65 K; 101 kPa; Liquid; c1 = 0.02
readout: mass density (kg/m3)

1. [Cl-].c1ccc([P+](c2ccccc2)(c2ccccc2)c2ccccc2)cc1 [tetraphenylphosphonium chloride] + O    995.43
2. [Cl-].c1ccc([P+](c2ccccc2)(c2ccccc2)c2ccccc2)cc1 [tetraphenylphosphonium chloride] + CC#N    766.82
3. [Cl-].c1ccc([P+](c2ccccc2)(c2ccccc2)c2ccccc2)cc1 [tetraphenylphosphonium chloride] + CCO    773.38
4. [Cl-].c1ccc([P+](c2ccccc2)(c2ccccc2)c2ccccc2)cc1 [tetraphenylphosphonium chloride] + CO    774.95

* * *

List of specific heat capacity values.
- measurement.protocol: specific heat capacity at constant pressure; cn = amount concentration of the nth substance listed, in mol/dm3
- test.settings: 314.65 K; 101 kPa; Liquid; heat flux microcalorimetry; c1 = 0.1
readout: specific heat capacity (J/K/kg)

1. [Cl-].c1ccc([P+](c2ccccc2)(c2ccccc2)c2ccccc2)cc1 [tetraphenylphosphonium chloride] + CO    2721.3
2. [Cl-].c1ccc([P+](c2ccccc2)(c2ccccc2)c2ccccc2)cc1 [tetraphenylphosphonium chloride] + CCO    2633.7
3. [Cl-].c1ccc([P+](c2ccccc2)(c2ccccc2)c2ccccc2)cc1 [tetraphenylphosphonium chloride] + CC#N    2257.9
4. [Cl-].c1ccc([P+](c2ccccc2)(c2ccccc2)c2ccccc2)cc1 [tetraphenylphosphonium chloride] + O    4244.7

* * *

- measurement.protocol: specific heat capacity at constant pressure; cn = amount concentration of the nth substance listed, in mol/dm3
- test.settings: 308.65 K; 101 kPa; Liquid; heat flux microcalorimetry; c1 = 0.05
readout: specific heat capacity (J/K/kg)

1) [Cl-].c1ccc([P+](c2ccccc2)(c2ccccc2)c2ccccc2)cc1 [tetraphenylphosphonium chloride] + O    4217.3
2) [Cl-].c1ccc([P+](c2ccccc2)(c2ccccc2)c2ccccc2)cc1 [tetraphenylphosphonium chloride] + CC#N    2255.3
3) [Cl-].c1ccc([P+](c2ccccc2)(c2ccccc2)c2ccccc2)cc1 [tetraphenylphosphonium chloride] + CCO    2555.5
4) [Cl-].c1ccc([P+](c2ccccc2)(c2ccccc2)c2ccccc2)cc1 [tetraphenylphosphonium chloride] + CO    2605.5

* * *

- measurement.protocol: cn = amount concentration of the nth substance listed, in mol/dm3
- test.settings: 308.65 K; 101 kPa; Liquid; c1 = 0.1
± gives the expanded uncertainty stated by the source.
List of mass density values.
readout: mass density

1) [Cl-].c1ccc([P+](c2ccccc2)(c2ccccc2)c2ccccc2)cc1 [tetraphenylphosphonium chloride] + CO    793.29 ± 1.8 kg/m3
2) [Cl-].c1ccc([P+](c2ccccc2)(c2ccccc2)c2ccccc2)cc1 [tetraphenylphosphonium chloride] + O    1001.06 ± 0.52 kg/m3
3) [Cl-].c1ccc([P+](c2ccccc2)(c2ccccc2)c2ccccc2)cc1 [tetraphenylphosphonium chloride] + CCO    791.62 ± 1.8 kg/m3
4) [Cl-].c1ccc([P+](c2ccccc2)(c2ccccc2)c2ccccc2)cc1 [tetraphenylphosphonium chloride] + CC#N    784.14 ± 1.9 kg/m3
